# credit: paper PMC12736958

# ASSAY_DETAILS: in vivo pharmacokinetic study in rats
# Set-up: species or system Sprague-Dawley (SD) rats
# EXPERIMENTAL_CONDITIONS: male, Sprague-Dawley, plasma; rat, oral (o.p.), 40 mg/kg Cur-equivalent; read-out: MRT(0–24)
QUANTITY: MRT last
The number alone won't do; follow it with the unit.

Lookup: Report MRT last, nothing else, for this compound: COc1cc(/C=C/C(=O)CC(=O)/C=C/c2ccc(O)c(OC)c2)ccc1O [Crystalline Cur, Curcumin]
Found: 6.3 h

----------
# ASSAY_DETAILS: in vivo pharmacokinetic study in rats
# Set-up: species or system Sprague-Dawley (SD) rats
# EXPERIMENTAL_CONDITIONS: male, Sprague-Dawley, rat, plasma, iv, 40 mg/kg, i.v., 40 mg/kg, 0.07 h, Rat1-Rat5, read-out: plasma concentration of Cur, individual animals
QUANTITY: concentration at 0.07 h
Kindly write the number and append the unit.

Lookup: Quickly give me recorded concentration at 0.07 h for COc1cc(/C=C/C(=O)CC(=O)/C=C/c2ccc(O)c(OC)c2)ccc1O [Solution Cur, Curcumin]
Found: 331 ng/mL

----------
# ASSAY_DETAILS: in vivo pharmacokinetic study in rats
# Parameters: species or system Sprague-Dawley (SD) rats
# EXPERIMENTAL_CONDITIONS: male, Sprague-Dawley, rat, plasma, iv, 40 mg/kg, i.v., 40 mg/kg, 0.5 h, Rat1-Rat5, read-out: plasma concentration of Cur, individual animals
QUANTITY: concentration at 0.5 h (ng/mL)
Please give a number only; it is taken to be in ng/mL.

Lookup: Provide one value: measured concentration at 0.5 h of COc1cc(/C=C/C(=O)CC(=O)/C=C/c2ccc(O)c(OC)c2)ccc1O [Solution Cur, Curcumin]
Found: 160

----------
# ASSAY_DETAILS: equilibrium solubility of crystalline Cur in excipient solutions
# Type: physicochemical
# EXPERIMENTAL_CONDITIONS: aqueous P188/SLS solution (8 mg/mL + 1 mg/mL), pH 7, aqueous with cosolvent or surfactant or cyclodextrin, thermodynamic from solid, P188/SLS 8 mg/mL + 1 mg/mL in water, 37 °C, read-out: equilibrium solubility (Cur con.)
QUANTITY: solubility thermodynamic at 24 h (µg/mL)
Express your answer in µg/mL, writing the number without its unit.

Lookup: Report measured solubility thermodynamic at 24 h; entry is COc1cc(/C=C/C(=O)CC(=O)/C=C/c2ccc(O)c(OC)c2)ccc1O
Found: 8.5

----------
# ASSAY_DETAILS: in vivo pharmacokinetic study in rats
# Design: species or system Sprague-Dawley (SD) rats
# EXPERIMENTAL_CONDITIONS: male, Sprague-Dawley, rat, plasma, iv, 40 mg/kg, i.v., 40 mg/kg, 24 h, Rat1-Rat5, read-out: plasma concentration of Cur, individual animals
QUANTITY: concentration at 24 h (ng/mL)
Please give a number only; it is taken to be in ng/mL.

Lookup: Look up concentration at 24 h of COc1cc(/C=C/C(=O)CC(=O)/C=C/c2ccc(O)c(OC)c2)ccc1O [Solution Cur, Curcumin] and report it.
Found: 8.3

----------
# ASSAY_DETAILS: in vivo pharmacokinetic study in rats
# Set-up: species or system Sprague-Dawley (SD) rats
# EXPERIMENTAL_CONDITIONS: male, Sprague-Dawley, plasma; rat, oral (o.p.), 40 mg/kg Cur-equivalent
QUANTITY: half-life (h)
Field: numeric (h). Do not append units.

Lookup: Give recorded half-life. COc1cc(/C=C/C(=O)CC(=O)/C=C/c2ccc(O)c(OC)c2)ccc1O
Found: 1.8
